SYSTEM UNDER TEST: αvβ1 (Homo sapiens, UniProt P05556+P06756)
Sequence (P06756 31-992 limits assumed): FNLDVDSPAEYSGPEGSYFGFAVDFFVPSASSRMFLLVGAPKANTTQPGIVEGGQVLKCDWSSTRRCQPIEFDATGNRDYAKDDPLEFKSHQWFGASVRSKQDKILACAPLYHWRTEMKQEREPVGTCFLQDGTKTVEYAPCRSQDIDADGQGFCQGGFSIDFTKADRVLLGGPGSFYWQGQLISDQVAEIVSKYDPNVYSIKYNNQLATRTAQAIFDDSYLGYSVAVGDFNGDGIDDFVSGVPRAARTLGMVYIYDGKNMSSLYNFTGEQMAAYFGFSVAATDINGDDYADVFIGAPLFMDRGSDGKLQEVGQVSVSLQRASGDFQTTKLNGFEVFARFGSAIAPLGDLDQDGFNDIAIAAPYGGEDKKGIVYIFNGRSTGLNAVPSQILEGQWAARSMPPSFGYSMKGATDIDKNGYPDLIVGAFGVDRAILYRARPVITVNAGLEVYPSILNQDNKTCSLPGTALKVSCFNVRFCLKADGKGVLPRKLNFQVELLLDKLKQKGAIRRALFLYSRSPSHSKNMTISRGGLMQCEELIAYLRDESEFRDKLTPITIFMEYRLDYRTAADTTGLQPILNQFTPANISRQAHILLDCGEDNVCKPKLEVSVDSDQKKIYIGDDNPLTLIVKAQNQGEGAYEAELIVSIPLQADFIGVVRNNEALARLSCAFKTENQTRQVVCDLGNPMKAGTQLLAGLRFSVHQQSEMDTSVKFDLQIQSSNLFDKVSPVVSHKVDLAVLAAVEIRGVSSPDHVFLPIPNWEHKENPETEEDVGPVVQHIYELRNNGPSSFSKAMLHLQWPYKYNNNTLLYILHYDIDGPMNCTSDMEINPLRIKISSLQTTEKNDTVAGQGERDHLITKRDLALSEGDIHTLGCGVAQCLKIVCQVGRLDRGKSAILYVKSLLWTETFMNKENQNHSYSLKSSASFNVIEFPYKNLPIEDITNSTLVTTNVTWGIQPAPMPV
Sequence (P05556 21-728 limits assumed): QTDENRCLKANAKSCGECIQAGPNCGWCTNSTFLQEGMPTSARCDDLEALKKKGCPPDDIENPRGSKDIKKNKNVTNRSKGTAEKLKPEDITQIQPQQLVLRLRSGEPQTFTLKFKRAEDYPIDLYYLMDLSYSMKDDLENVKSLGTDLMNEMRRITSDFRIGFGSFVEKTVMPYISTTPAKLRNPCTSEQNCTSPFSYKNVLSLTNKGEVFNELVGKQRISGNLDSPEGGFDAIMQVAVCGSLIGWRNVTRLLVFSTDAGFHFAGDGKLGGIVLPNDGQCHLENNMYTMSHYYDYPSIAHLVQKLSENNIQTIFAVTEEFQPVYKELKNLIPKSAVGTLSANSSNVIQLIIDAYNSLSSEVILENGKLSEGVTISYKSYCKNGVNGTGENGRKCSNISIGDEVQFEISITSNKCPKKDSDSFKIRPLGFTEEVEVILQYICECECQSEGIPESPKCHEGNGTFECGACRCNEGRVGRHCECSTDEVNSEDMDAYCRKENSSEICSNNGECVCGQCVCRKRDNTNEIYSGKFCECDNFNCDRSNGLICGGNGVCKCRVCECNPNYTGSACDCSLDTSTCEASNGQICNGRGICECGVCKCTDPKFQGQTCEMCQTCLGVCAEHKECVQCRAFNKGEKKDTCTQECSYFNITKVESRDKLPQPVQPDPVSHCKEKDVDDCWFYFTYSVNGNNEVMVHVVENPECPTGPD
TEST SUMMARY: Solid Phase Integrin αvβ1 Assay
# key: entry, value: IC50

Before answering, review these 4 worked examples.
O=C(O)C[C@H](NC(=O)[C@@H]1CCCN(CCCc2ccc3c(n2)NCCC3)C1)c1cccc(Oc2ccccc2)c1
< 100 nM
O=C(N[C@@H](CNC(=O)[C@@H]1CCCN(CCCc2ccc3c(n2)NCCC3)C1)C(=O)O)c1ccncc1
< 100 nM
O=C(NC[C@@H](C(=O)O)c1cccc2cnn([C@H]3CCOC3)c12)[C@@H]1CCCN(CCCc2ccc3c(n2)NCCC3)C1
> 1000 nM
Nc1nnc(C(=O)N[C@@H](CNC(=O)[C@@H]2CCCN(CCCc3ccc4c(n3)NCCC4)C2)C(=O)O)o1
< 100 nM

[ask] State measured IC50 of the molecule O=C(NC[C@H](Nc1ncc(C(F)(F)F)cn1)C(=O)O)[C@@H]1CCCN(CCCc2ccc3c(n2)NCCC3)C1 with αvβ1 (Homo sapiens, UniProt P05556+P06756).
[reply] < 100 nM

[ask] State measured IC50 of the molecule O=C(O)C[C@H](O[C@@H]1CCCN(CCCCc2ccc3c(n2)NCCC3)C1)c1ccccc1 with αvβ1 (Homo sapiens, UniProt P05556+P06756).
[reply] > 1000 nM

[ask] State measured IC50 of the molecule O=C(N[C@H](CCO[C@@H]1CCCN(CCCc2ccc3c(n2)NCCC3)C1)C(=O)O)c1c(F)cccc1F with αvβ1 (Homo sapiens, UniProt P05556+P06756).
[reply] 100 to 1000 nM

---

# key: entry, value: pIC50
SYSTEM UNDER TEST: αvβ6 (Homo sapiens, UniProt P06756+P18564)
Sequence (P18564 22-707 limits assumed, one chain of several): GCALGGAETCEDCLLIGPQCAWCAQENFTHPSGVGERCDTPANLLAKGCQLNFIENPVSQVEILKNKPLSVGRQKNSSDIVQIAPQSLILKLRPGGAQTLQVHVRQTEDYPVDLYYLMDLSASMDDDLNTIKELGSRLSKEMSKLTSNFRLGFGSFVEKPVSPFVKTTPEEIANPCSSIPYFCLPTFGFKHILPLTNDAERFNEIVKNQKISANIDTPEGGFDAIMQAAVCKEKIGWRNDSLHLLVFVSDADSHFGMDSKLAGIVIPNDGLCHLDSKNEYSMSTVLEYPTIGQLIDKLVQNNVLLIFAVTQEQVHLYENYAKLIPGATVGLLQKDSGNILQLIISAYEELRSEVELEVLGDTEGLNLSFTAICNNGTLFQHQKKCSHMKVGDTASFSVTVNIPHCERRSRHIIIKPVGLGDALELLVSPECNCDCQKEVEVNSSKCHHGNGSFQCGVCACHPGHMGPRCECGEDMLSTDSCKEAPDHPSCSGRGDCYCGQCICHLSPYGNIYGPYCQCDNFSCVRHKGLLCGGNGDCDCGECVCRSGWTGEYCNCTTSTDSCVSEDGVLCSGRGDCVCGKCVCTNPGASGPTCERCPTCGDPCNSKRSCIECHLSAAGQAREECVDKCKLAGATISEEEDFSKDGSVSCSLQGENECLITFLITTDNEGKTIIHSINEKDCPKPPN
TEST SUMMARY: Solid Phase Integrin αvβ6 Assay
pIC50: −log10 of the molar value.

Before answering, review these 3 worked examples.
C[C@H]1C[C@H](C(=O)NC[C@H](C(=O)O)c2ccc3ccccc3c2)CN(CCCc2ccc3c(n2)NCCC3)C1
6.00 to 7.00
CC1(C)CN(c2cc([C@@H](CO[C@@H]3CCCN(CCCc4ccc5c(n4)NCCC5)C3)CC(=O)O)ccc2F)CCO1
> 7.00
O=C(O)C[C@@H](CO[C@@H]1CCCN(CCCc2ccc3c(n2)NCCC3)C1)c1cncc(N2CCC(F)(F)CC2)c1
> 7.00

[ask] Note pIC50 for the molecule shown: C[C@H]1C[C@H](C(=O)NC[C@@H](C(=O)O)c2ccc3ccccc3c2)CN(CCCc2ccc3c(n2)NCCC3)C1
[reply] > 7.00

[ask] Note pIC50 for the molecule shown: C[C@@H]1CCN(CCCc2ccc3c(n2)NCCC3)C[C@@H]1C(=O)N[C@@H](CC(=O)O)c1ccccc1
[reply] > 7.00

---

SYSTEM UNDER TEST: αvβ1 (Homo sapiens, UniProt P05556+P06756)
TEST SUMMARY: Solid Phase Integrin αvβ1 Assay
Protocol: The compounds exemplified in this document were tested for their ability to inhibit αvβ1 and αvβ6 in below described solid phase integrin assays. Solid Phase Integrin αvβ1 Assay 96-well microtiter plates (4 HBX Immulon; Thermo Fisher Scientific, Waltham, MA) were coated with 100 μL/well of 1 μg/mL recombinant TGFb1-LAP in TBS at 4° C., overnight. […] Bound protein was detected using the substrate TMB. […]
Where a name gives a salt, the structure may show the parent alone.
READOUT KIND: IC50

Before answering, review these 6 worked examples.
O=C(O)C[C@@H](CO[C@@H]1CCCN(CCCc2ccc3c(n2)NCCC3)C1)c1cccc(N2C[C@H]3CC[C@@H]2CO3)c1
< 100 nM
CC1(C)CCN(c2cccc([C@H](CO[C@@H]3CCCN(CCCc4ccc5c(n4)NCCC5)C3)CC(=O)O)c2)CC1
100 to 1000 nM
O=C(O)C[C@@H](CO[C@@H]1CCCN(CCCc2ccc3c(n2)NCCC3)C1)c1ccccc1
< 100 nM
O=C(NC[C@@H](Nc1ccccc1C1CC(F)(F)C1)C(=O)O)[C@@H]1CCCN(CCCc2ccc3c(n2)NCCC3)C1
< 100 nM
O=C(N[C@@H](CCO[C@@H]1CCCN(CCCc2ccc3c(n2)NCCC3)C1)C(=O)O)c1c(F)cc(N2CCOCC2)cc1F
< 100 nM
O=C(NC1CCCCC1)N[C@@H](CNC(=O)[C@@H]1CCCN(CCCc2ccc3c(n2)NCCC3)C1)C(=O)O
< 100 nM

[ask] Note IC50 for the compound shown: O=C(O)[C@@H](CO[C@@H]1CCCN(Cc2ccc3c(n2)NCCC3)C1)NC(=O)C12CCC(CC1)CC2
[reply] > 1000 nM

[ask] Note IC50 for the compound shown: O=C(NC[C@@H](C(=O)O)c1cnc2c(ccn2CC2CC2)c1)[C@@H]1CCCN(CCCc2ccc3c(n2)NCCC3)C1
[reply] < 100 nM

[ask] Note IC50 for the compound shown: O=C(O)C[C@H](CO[C@@H]1CCCN(CCCc2ccc3c(n2)NCCC3)C1)c1cc(C2CC2)ccc1F
[reply] < 100 nM

[ask] Note IC50 for the compound shown: O=C(O)[C@H](CCO[C@@H]1CCCN(CCCc2ccc3c(n2)NCCC3)C1)NC(=O)C12CCC(CC1)CC2
[reply] 100 to 1000 nM

[ask] Note IC50 for the compound shown: O=C(O)C[C@H](NC[C@@H]1CCCN(CCCc2ccc3c(n2)NCCC3)C1)c1ccccc1 [Compound 292, hydrochloride]
[reply] > 1000 nM

[ask] Note IC50 for the compound shown: Cc1cc([C@@H](CO[C@@H]2CCCN(CCCc3ccc4c(n3)NCCC4)C2)CC(=O)O)cc(N2CCOC(C)(C)C2)c1
[reply] < 100 nM

[ask] Note IC50 for the compound shown: CC(C)CNC(=O)[C@@H]1CCCC[C@H]1C(=O)N[C@@H](CNC(=O)[C@@H]1CCCN(CCCc2ccc3c(n2)NCCC3)C1)C(=O)O
[reply] < 100 nM

[ask] Note IC50 for the compound shown: O=C(CC[C@@H](C(=O)O)c1ccccc1)N[C@@H]1CCN(C(=O)CCCc2ccc3c(n2)NCCC3)C1
[reply] > 1000 nM

[ask] Note IC50 for the compound shown: O=C(O)CC(NC(=O)[C@@H]1CCCN(CCCc2ccc3c(n2)NCCC3)C1)c1cnn(-c2ccccc2)c1 (stereo partly drawn) [Compound 233, hydrochloride]
[reply] < 100 nM

[ask] Note IC50 for the compound shown: O=C(NC[C@@H](C(=O)O)c1ccc(F)c(-c2ccccc2)c1F)[C@@H]1CCCN(CCCc2ccc3c(n2)NCCC3)C1
[reply] < 100 nM

[ask] Note IC50 for the compound shown: Cc1c[s+]([O-])c2ncnc(N[C@@H](CCO[C@@H]3CCCN(CCCc4ccc5c(n4)NCCC5)C3)C(=O)O)c12 (stereo partly drawn)
[reply] < 100 nM

[ask] Note IC50 for the compound shown: O=C(N[C@@H](CNC(=O)[C@@H]1CCCN(CCCc2ccc3c(n2)NCCC3)C1)C(=O)O)C1CC2CCC1CC2 (stereo partly drawn) [Compound 285]
[reply] < 100 nM

[ask] Note IC50 for the compound shown: O=C(O)[C@H](CCO[C@@H]1CCCN(CCCc2ccc3c(n2)NCCC3)C1)c1ccc(F)c(-c2ccccc2)c1
[reply] > 1000 nM

[ask] Note IC50 for the compound shown: O=C(O)[C@H](CCO[C@@H]1CCCN(CCCc2ccc3c(n2)NCCC3)C1)Nc1ncnc2ccccc12
[reply] < 100 nM

[ask] Note IC50 for the compound shown: O=C(O)C[C@H](CO[C@@H]1CCCN(Cc2ccc3c(n2)NCCC3)C1)c1ccccc1
[reply] 100 to 1000 nM

[ask] Note IC50 for the compound shown: O=C(NC[C@H](Nc1ncnc2cc(F)c(F)cc12)C(=O)O)[C@@H]1CCCN(CCCc2ccc3c(n2)NCCC3)C1
[reply] < 100 nM

[ask] Note IC50 for the compound shown: CN(C[C@@H]1CCCN(CCCc2ccc3c(n2)NCCC3)C1)[C@@H](CC(=O)O)c1ccccc1 [Compound 293, hydrochloride]
[reply] > 1000 nM

[ask] Note IC50 for the compound shown: O=C(O)C[C@@H](NC(=O)[C@@H]1CCCN(CCCc2ccc3c(n2)NCCC3)C1)c1cc(C2CC2)ccc1F
[reply] < 100 nM

[ask] Note IC50 for the compound shown: O=C(NC[C@H](C(=O)O)c1ccccc1-c1ccccc1)[C@@H]1CCCN(CCCc2ccc3c(n2)NCCC3)C1
[reply] > 1000 nM

[ask] Note IC50 for the compound shown: O=C(O)C[C@@H](CO[C@@H]1CCCN(CCCc2ccc3c(n2)NCCC3)C1)c1cccc([C@@H]2CCOC2)c1
[reply] < 100 nM

[ask] Note IC50 for the compound shown: O=C(O)C[C@H](NC(=O)[C@@H]1CCCN(CCCc2ccc3c(n2)NCCC3)C1)c1cc(C2CC2)ccc1F
[reply] 100 to 1000 nM
